Reference source: paper PMC8330742

system: A498; assay: NCI-60 SRB screen; type: cell-based, human; settings: Homo sapiens; A498; five dose;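 note: half-maximal inhibitory concentration read as cell viability unlike GI50 net growth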

- compound: "N#CC1C(=O)NC(c2ccccc2[N+](=O)[O-])c2sc3c(F)cccc3c21 (stereo not shown)"
  IC50: "3.09 µM"

----------
Quick reference: inhibition at 10 µM of the listed items.
test system: SNB-19; test: NCI-60 SRB screen; type: cell-based; conditions: Homo sapiens; single dose 10^−5 M; SNB-19, CNS cancer; read-out: Growth inhibition (%)

- compound: "O=[N+]([O-])c1cccc(C2NC(N3CCCCC3)=C(Cl)c3c2sc2c(F)cccc32)c1 (stereo not drawn) [Compound 8c]"
  inhibition at 10 µM [%]: -3.36
- compound: "CCN1CCN(C2=C(Cl)c3c(sc4c(F)cccc34)C(c3cccc([N+](=O)[O-])c3)N2)CC1 (stereo not drawn) [Compound 8a]"
  inhibition at 10 µM [%]: 1.26
- compound: "CCN1CCN(C2=C(C#N)c3c(sc4c(F)cccc34)C(c3cccc([N+](=O)[O-])c3)N2)CC1 (stereo not drawn) [Compound 8d]"
  inhibition at 10 µM [%]: -1.27
- compound: "O=[N+]([O-])c1cccc(C2NC(N3CCOCC3)=C(Cl)c3c2sc2c(F)cccc32)c1 (stereo not drawn) [Compound 8b]"
  inhibition at 10 µM [%]: 1.4
- compound: "N#CC1=C(N2CCCCC2)NC(c2cccc([N+](=O)[O-])c2)c2sc3c(F)cccc3c21 (stereo not drawn) [Compound 8f]"
  inhibition at 10 µM [%]: 1.38
- compound: "O=[N+]([O-])c1cccc(C2NC3=C(Nc4ccccc4N3)c3c2sc2c(F)cccc32)c1 (stereo not drawn) [Compound 9]"
  inhibition at 10 µM [%]: -0.03
- compound: "N#CC1=C(Cl)NC(c2cccc([N+](=O)[O-])c2)c2sc3c(F)cccc3c21 (stereo not drawn) [Compound 7b]"
  inhibition at 10 µM [%]: -0.67
- compound: "N#CC1=C(N2CCOCC2)NC(c2cccc([N+](=O)[O-])c2)c2sc3c(F)cccc3c21 (stereo not drawn) [Compound 8e]"
  inhibition at 10 µM [%]: -0.92
- compound: "N#CC1=C(Nc2ccccc2F)NC(c2cccc([N+](=O)[O-])c2)c2sc3c(F)cccc3c21 (stereo not drawn) [Compound 10]"
  inhibition at 10 µM [%]: -3.45

----------
system: HCC-2998; test: NCI-60 SRB screen; format: cell-based, human; conditions: Homo sapiens; HCC-2998; single dose 10^−5 M; read-out: Growth inhibition (%)
Threshold rule: inhibition at 10 µM greater than or equal to -10% is T; below that, F.

- molecule: "O=C1NC(c2ccccc2[N+](=O)[O-])c2sc3c(F)cccc3c2C1Cl (stereo not drawn)"
  qualitative_label: "F"
- molecule: "COc1ccc(C2NC(=O)C(Cl)c3c2sc2c(F)cccc32)c(OC)c1 (stereo not drawn)"
  qualitative_label: "T"
- molecule: "O=C1C(=Cc2ccccc2[N+](=O)[O-])Sc2c(F)cccc21"
  qualitative_label: "F"
- molecule: "N#CC1C(=O)NC(c2ccccc2[N+](=O)[O-])c2sc3c(F)cccc3c21 (stereo not drawn)"
  qualitative_label: "T"
- molecule: "O=[N+]([O-])c1cccc(C2NC(Cl)=C(Cl)c3c2sc2c(F)cccc32)c1 (stereo not drawn)"
  qualitative_label: "F"
- molecule: "O=C1NC(c2cccc([N+](=O)[O-])c2)c2sc3c(F)cccc3c2C1N1CCOCC1 (stereo not drawn)"
  qualitative_label: "T"
